METHOD SUMMARY: Absorption and photoluminescence (quantum yield, lifetime, q)
Type: physicochemical
Design: unit not given here
SETUP CONDITIONS: room temperature; 10 measured in MeOH, 11 in DMSO
ENDPOINT: λabs(max)
// no unit string in output, number only

Prompt: What value of λabs(max) has been reported for the following compound? COc1cc(OC)c(C#Cc2cc(CN3C[C@H](CC(C)C)N(CC(=O)[O-])C[C@H](CC(C)C)N(CC(=O)[O-])C[C@H](CC(C)C)N(CC(=O)[O-])C[C@@H]3CC(C)C)nc(P(C)(=O)[O-])c2)c(OC)c1.[Eu+3]
Completion: 364

Prompt: Please give the result for CC[C@@H]1CN(CC(=O)[O-])[C@H](CC)CN(Cc2cc(C#Cc3c(OC)cc(OC)cc3OC)cc(P(C)(=O)[O-])n2)[C@H](CC)CN(CC(=O)[O-])[C@H](CC)CN1CC(=O)[O-].[Eu+3] too.
Completion: 356

Prompt: // query: COc1cc(OC)c(C#Cc2cc(CN3CC(Cc4ccccc4)N(CC(=O)[O-])CC(Cc4ccccc4)N(CC(=O)[O-])CC(Cc4ccccc4)N(CC(=O)[O-])CC3Cc3ccccc3)nc(P(C)(=O)[O-])c2)c(OC)c1.[Eu+3] (stereo not drawn)
Completion: 354
